Let's look at some molecules and their measured inhibition.
- Target Entity: Protein phosphatase methylesterase 1 (Homo sapiens)
- Experimental Details: lysate PME-1 activity-based profiling inhibitors – cell lysate, gel ABPP, fluorescence, HeLa, MDA-MB-231, late-stage follow-up (AID 463146)
- Measurement Conditions: HeLa/MDA-MB-231 lysate, FP-Rh gel ABPP fluorescence; HeLa Lysate; at 10 µM (top of the series)
Measurement Label: inhibition (%)

# Molecule, Observed Result
measured = [
    ("COC(=O)N1C(=O)[C@@](c2ccccc2)(C2CCCC2)N1C(=O)OC", 100),
    ("COC(=O)N1C(=O)[C@](c2ccccc2)(C2CCCC2)N1C(=O)OC", 100),
    ("COC(=O)N1C(=O)[C@](c2ccccc2)(C2CCCCC2)N1C(=O)OC", 100),
    ("COC(=O)N1C(=O)[C@@](c2ccccc2)(C2CCCCC2)N1C(=O)OC", 100),
]
